# target_system: Bifunctional dihydrofolate reductase-thymidylate synthase (Cryptosporidium parvum, UniProt Q27552)
# Sequence (Q27552 whole entry): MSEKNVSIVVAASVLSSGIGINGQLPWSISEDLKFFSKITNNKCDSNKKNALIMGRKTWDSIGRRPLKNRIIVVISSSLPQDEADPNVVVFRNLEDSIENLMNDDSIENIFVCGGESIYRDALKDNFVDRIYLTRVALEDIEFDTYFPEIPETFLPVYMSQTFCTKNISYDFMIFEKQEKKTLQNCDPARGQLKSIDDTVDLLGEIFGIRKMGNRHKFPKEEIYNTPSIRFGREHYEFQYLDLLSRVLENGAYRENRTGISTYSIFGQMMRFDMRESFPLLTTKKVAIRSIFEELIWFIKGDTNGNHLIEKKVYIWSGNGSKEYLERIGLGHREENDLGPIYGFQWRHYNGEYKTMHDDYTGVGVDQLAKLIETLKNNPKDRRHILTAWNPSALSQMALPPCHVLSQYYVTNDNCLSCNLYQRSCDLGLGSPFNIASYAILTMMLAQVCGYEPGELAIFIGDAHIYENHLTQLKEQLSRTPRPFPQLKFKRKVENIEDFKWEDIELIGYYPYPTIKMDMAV
# method_notes: Inhibition of Cryptosporidium parvum recombinant DHFR using dihydrofolate as substrate incubated for 5 min prior to substrate addition by spectrophotometric assay
Simple rule here: IC50 less than 3000 nM is Criterion met, otherwise Criterion not met.

Example results:
compound="CCOC(=O)CSC1=NC(c2ccccc2OC)C(C(=O)OCC)=C(C)N1 (stereo unspecified)" label="Criterion not met"
compound="CC(=O)C1=C(C)NC(=S)NC1c1cccc(O)c1 (stereo unspecified)" label="Criterion not met"
compound="CCOC(=O)C1=C(C)NC(S/C(=C\\c2ccc(OC)cc2)C(=O)OCC)=NC1c1ccccc1 (stereo unspecified)" label="Criterion met"

Input: Field: below-cutoff. Rule: recorded IC50 strictly less than 3000 nM. Subject: CCOC(=O)CSC1=NC(c2ccccc2)C(C(=O)OCC)=C(C)N1 (stereo unspecified)
Output: Criterion not met

Input: Identify whether the compound CCOC(=O)C1=C(C)N=C(SCCC(=O)O)NC1c1ccccc1OC (stereo unspecified) records IC50 below 3000 nM.
Output: Criterion met

Input: Quick check: does CC(=O)C1=C(C)N=C(SCCC(=O)O)NC1c1cccc(O)c1 (stereo unspecified) have IC50 under 3000 nM?
Output: Criterion met

====

# Test system: Toxoplasma gondii
# method_notes: Antiparasitic activity against Toxoplasma gondii RH infected Swiss albino mouse assessed as decrease in tachozyte count in spleen at 0.25 mg, po administered 48 hr post-infection measured after 3 days by Geimsa staining relative to control
# Assay type: functional, organism-based
Active and inactive are the calls of the source. The calls are words filed in the database; no cut-off is given here.
A correct response names exactly one class from True = active, False = inactive

Completed entries (count: 2):
compound="CC(=O)C1=C(C)NC(=S)NC1c1cccc(O)c1 (stereo unspecified)" label=False
compound="CCOC(=O)C1=C(C)N=C(SCCC(=O)O)NC1c1ccccc1OC (stereo unspecified)" label=True

Input: What did this assay record as the result for CCOC(=O)C1=C(C)NC(=S)NC1c1ccccc1 (stereo unspecified) ?
Output: False

Input: Can you look up the reported call for CCOC(=O)CSC1=NC(c2ccccc2OC)C(C(=O)OCC)=C(C)N1 (stereo unspecified) for me?
Output: False

Input: What did this assay record as the result for CCOC(=O)C1=C(C)NC(S/C(=C\c2ccc(OC)cc2)C(=O)OCC)=NC1c1ccccc1 (stereo unspecified) ?
Output: True

====

# target_system: Dihydrofolate reductase (Homo sapiens)
# Sequence (P00374 whole entry): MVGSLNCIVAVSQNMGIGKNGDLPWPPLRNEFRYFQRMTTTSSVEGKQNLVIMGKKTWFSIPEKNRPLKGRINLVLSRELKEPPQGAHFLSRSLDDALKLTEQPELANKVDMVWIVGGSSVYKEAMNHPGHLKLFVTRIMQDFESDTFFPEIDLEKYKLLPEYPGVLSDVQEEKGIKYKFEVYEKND
IC50: recorded values
API: value field is a number in µM; no unit string.

In the examples that follow, each entry is paired with its recorded IC50.
compound="CCOC(=O)C1=C(C)NC(=S)NC1c1ccccc1OC (stereo unspecified)" reported_result=1.9
compound="CC(=O)C1=C(C)N=C(SCCC(=O)O)NC1c1cccc(O)c1 (stereo unspecified)" reported_result=0.094

Input: Look up and state reported IC50 for CCOC(=O)C1=C(C)NC(=S)NC1/C=C\c1ccccc1 (stereo unspecified)
Output: 2.9

Input: Determine its reported IC50: CC(=O)C1=C(C)N=C(SCCC(=O)O)NC1c1ccccc1 (stereo unspecified)
Output: 0.0013

Input: Report IC50 for CC(=O)C1=C(C)NC(=S)NC1c1cccc(O)c1 (stereo unspecified)
Output: 9.4

Input: Tell me IC50 reported for CCOC(=O)C1=C(C)N=C(SCC(=O)c2ccc(Cl)c([N+](=O)[O-])c2)NC1c1ccccc1 (stereo unspecified)
Output: 3

====

# System: Toxoplasma gondii
# method_notes: Antiparasitic activity Toxoplasma gondii RH infected Swiss albino mouse assessed as decreased parasite movement in host peritoneal exudate at 0.25 mg, po administered 48 hr post-infection measured after 3 days by light microscopic analysis
# Assay type: functional, organism-based
Activity calls are given as the source filed them. No cut-off for these calls is given here.
Write down the outcome that applies. Available outcomes: active, inactive

Examples from the recorded data:
molecule="CCOC(=O)CSC1=NC(c2ccccc2OC)C(C(=O)OCC)=C(C)N1 (stereo unspecified)" label=inactive
molecule="CCOC(=O)CSC1=NC(c2ccccc2)C(C(=O)OCC)=C(C)N1 (stereo unspecified)" label=inactive
molecule="CC(=O)C1=C(C)N=C(SCCC(=O)O)NC1c1cccc(O)c1 (stereo unspecified)" label=active

Input: Returns: the outcome recorded for CCOC(=O)C1=C(C)NC(=S)NC1c1ccccc1OC (stereo unspecified) in this assay.
Output: inactive

Input: Hi team, can someone confirm the assay call for CCOC(=O)C1=C(C)NC(S/C(=C\c2ccc(OC)cc2)C(=O)OCC)=NC1c1ccccc1 (stereo unspecified) ?
Output: active

====

# System: Toxoplasma gondii
# method_notes: Antiparasitic activity Toxoplasma gondii RH infected Swiss albino mouse assessed as parasite deformity in host peritoneal exudate at 0.25 mg, po administered 48 hr post-infection measured after 3 days by light microscopic analysis
# Type: functional, organism-based
Activity calls are given as the source filed them. The rule behind the calls is not given here.
Allowed answers: YES (active), NO (inactive)

A selection of reference data follows.
compound="CCOC(=O)C1=C(C)NC(=S)NC1c1ccccc1OC (stereo unspecified)" label=NO
compound="CCOC(=O)CSC1=NC(c2ccccc2)C(C(=O)OCC)=C(C)N1 (stereo unspecified)" label=NO
compound="CCOC(=O)C1=C(C)N=C(SCCC(=O)O)NC1c1ccccc1OC (stereo unspecified)" label=YES
compound="CCOC(=O)C1=C(C)NC(S/C(=C\\c2ccc(OC)cc2)C(=O)OCC)=NC1c1ccccc1 (stereo unspecified)" label=YES

Input: Returns: the outcome recorded for CCOC(=O)CSC1=NC(c2ccccc2OC)C(C(=O)OCC)=C(C)N1 (stereo unspecified) in this assay.
Output: NO

Input: Recorded call for CC(=O)C1=C(C)NC(=S)NC1c1cccc(O)c1 (stereo unspecified) ?
Output: NO

====

# System: Toxoplasma gondii
# method_notes: Antiparasitic activity against Toxoplasma gondii RH infected Swiss albino mouse assessed as decrease in tachozyte count in spleen at 0.25 mg, po administered 48 hr post-infection measured after 3 days by Geimsa staining relative to control
# Format: functional, organism-based
Activity calls are given as the source filed them. The rule behind the calls is not given here.
Result category, one only: Yes for active, No for inactive

Check out these entries, answers already filled in.
compound="CCOC(=O)C1=C(C)NC(=S)NC1c1ccccc1OC (stereo unspecified)" label=No
compound="CC(=O)C1=C(C)N=C(SCCC(=O)O)NC1c1ccccc1 (stereo unspecified)" label=Yes
compound="CCOC(=O)CSC1=NC(c2ccccc2)C(C(=O)OCC)=C(C)N1 (stereo unspecified)" label=No
compound="CC(=O)C1=C(C)N=C(SCCC(=O)O)NC1c1cccc(O)c1 (stereo unspecified)" label=Yes
compound="CCOC(=O)C1=C(C)NC(=S)NC1/C=C\\c1ccccc1 (stereo unspecified)" label=No

Input: Would you mind telling me which call this test gave CCOC(=O)C1=C(C)N=C(SCC(=O)c2ccc(Cl)c([N+](=O)[O-])c2)NC1c1ccccc1 (stereo unspecified) ?
Output: No

====

# System: Toxoplasma gondii
# method_notes: Antiparasitic activity Toxoplasma gondii RH infected Swiss albino mouse assessed as decreased parasite movement in host peritoneal exudate at 0.25 mg, po administered 48 hr post-infection measured after 3 days by light microscopic analysis
# Assay type: functional, organism-based
Active and inactive are the calls of the source. The rule behind the calls is not given here.
Outcome (select one): class 1 (active), class 0 (inactive)

Consider the following illustrative entries.
compound="CCOC(=O)C1=C(C)N=C(SCC(=O)c2ccc(Cl)c([N+](=O)[O-])c2)NC1c1ccccc1 (stereo unspecified)" label="class 0"
compound="CCOC(=O)C1=C(C)NC(=S)NC1c1ccccc1 (stereo unspecified)" label="class 0"
compound="CC(=O)C1=C(C)NC(=S)NC1c1cccc(O)c1 (stereo unspecified)" label="class 0"
compound="CCOC(=O)C1=C(C)NC(=S)NC1/C=C\\c1ccccc1 (stereo unspecified)" label="class 0"
compound="CC(=O)C1=C(C)N=C(SCCC(=O)O)NC1c1ccccc1 (stereo unspecified)" label="class 1"

Input: For CCOC(=O)C1=C(C)N=C(SCCC(=O)O)NC1c1ccccc1OC (stereo unspecified) , what call appears in the results of this test?
Output: class 1
